- Tested on: poly dAdT–poly dAdT (DNA, polymer) AT
- Experimental protocol: fluorimetric titration, Scatchard
- Condition notes: Na+ (sodium cacodylate, I = 0.05 M); pH 7.0; apparent; per phosphate; n fixed at 0.2; dye 1.3–1.5 × 10^-7 M; per base
Readout label: log Ks

Compound: CC(O)C[n+]1c(C=C2C=CN(CCC[N+]3(C)CCC(CCCC4CC[N+](C)(CCCN5C=CC(=Cc6sc7ccccc7[n+]6CC(C)O)c6ccc(Cl)cc65)CC4)CC3)c3cc(Cl)ccc32)sc2ccccc21 (centres unmarked)
Target or test system: poly dAdT–poly dAdT (DNA, polymer) AT
Endpoint result: 6.05
//
Compound: CC(O)C[n+]1c(C=C2C=CN(CCC[n+]3ccc(CCCc4cc[n+](CCCN5C=CC(=Cc6sc7ccccc7[n+]6CC(C)O)c6ccccc65)cc4)cc3)c3ccccc32)sc2ccccc21 (centres unmarked)
Target or test system: poly dAdT–poly dAdT (DNA, polymer) AT
Endpoint result: 6.68
//
Compound: CC(O)C[n+]1c(C=C2C=CN(CCC[N+](C)(C)CCC[N+](C)(C)C)c3ccccc32)sc2ccccc21 (centres unmarked)
Target or test system: poly dAdT–poly dAdT (DNA, polymer) AT
Endpoint result: 6.65
//
Compound: CC(O)C[n+]1c(C=C2C=CN(CCC[N+]3(C)CCC(CCCC4CC[N+](C)(CCCN5C=CC(=Cc6sc7ccccc7[n+]6CC(C)O)c6ccccc65)CC4)CC3)c3ccccc32)sc2ccccc21 (centres unmarked)
Target or test system: poly dAdT–poly dAdT (DNA, polymer) AT
Endpoint result: 6.98
//
Compound: CC(O)C[n+]1c(C=C2C=CN(CCC[N+](C)(C)CCC[N+](C)(C)CCCN3C=CC(=Cc4sc5ccccc5[n+]4CC(C)O)c4ccccc43)c3ccccc32)sc2ccccc21 (centres unmarked)
Target or test system: poly dAdT–poly dAdT (DNA, polymer) AT
Endpoint result: 7.23
